// data source = patent US6566327B1

tested on: Male Swiss Webster mice; assay: Mouse acetic acid-induced writhing test (i.c.v. peptides); type: in vivo; details: method #2, percent analgesia, acetic acid i.p. 5 min after peptide, 95% CL in brackets
Square brackets hold non-standard residues; d marks the D form. Peptide text beside a SMILES is read from it.
EXPERIMENTAL_READOUT: AD50 (nmol/mouse) (95% CL)

>>> reported("C[C@@H]1NC(=O)[C@H](CCC(N)=O)NC(=O)CNC(=O)[C@H](CCCNC(=N)N)NC1=O [Peptide 5, cyclic(-Gly-Gln-Ala-Arg-)] (cyclo(ARGQ))")
"13.3 (1.6-114) nmol/mouse"

Lookup: // fetch AD50 (nmol/mouse) (95% CL) for C[C@@H]1NC(=O)[C@H](CCC(N)=O)NC(=O)[C@H](CCCNC(=N)N)NC(=O)[C@H](CCCNC(=N)N)NC1=O [Peptide 6, cyclic(-Arg-Gln-Ala-Arg-)] ; system: Male Swiss Webster mice
Found: 25.1 (11.3-55.6) nmol/mouse

Lookup: Tell me its AD50 (nmol/mouse) (95% CL) on Male Swiss Webster mice: N=C(N)NCCC[C@H]1NC(=O)[C@H](Cc2ccc(O)cc2)NC(=O)[C@H](CCC(N)=O)NC(=O)CNC1=O [Peptide 8, cyclic(-Gly-Gln-Tyr-D-Arg-)] (cyclo(GQY[dR]))
Found: 4.41 (1.7-11.9) nmol/mouse

* * *

test system: Male Swiss Webster mice; assay: Mouse acetic acid-induced writhing test (i.c.v. peptides); assay type: in vivo; settings: method #2, percent analgesia, acetic acid i.p. 5 min after peptide, 95% CL in brackets
Square brackets hold non-standard residues; d marks the D form. Peptide text beside a SMILES is read from it.
EXPERIMENTAL_READOUT: AD50 (nmol/mouse) (95% CL)

See these solved cases before continuing.
>>> reported("C[C@@H]1NC(=O)[C@H](CCC(N)=O)NC(=O)CNC(=O)[C@H](CCCNC(=N)N)NC(=O)[C@H](C)NC(=O)[C@H](CCC(N)=O)NC(=O)CNC(=O)[C@H](CCCNC(=N)N)NC1=O [Peptide 5B] (cyclo(ARGQARGQ))")
"25.3 (11.6-55.1) nmol/mouse"
>>> reported("N=C(N)NCCC[C@H](NC(=O)CNC(=O)[C@H](CCC(N)=O)NC(=O)CN)C(=O)O [Peptide 2, H-Gly-Gln-Gly-Arg-OH] (H-GQGR-OH)")
"25.9 (5.9-113) nmol/mouse"
>>> reported("N=C(N)NCCC[C@H]1NC(=O)[C@H](Cc2ccc(O)cc2)NC(=O)[C@@H](CCC(N)=O)NC(=O)CNC1=O [Peptide 9, cyclic(-Gly-D-Gln-Tyr-D-Arg-)] (cyclo(G[dQ]Y[dR]))")
"2.23 (1.45-3.43) nmol/mouse"
>>> reported("C[C@H](NC(=O)[C@H](CCC(N)=O)NC(=O)CN)C(=O)N[C@@H](CCCNC(=N)N)C(=O)O [Peptide 3, H-Gly-Gln-Ala-Arg-OH] (H-GQAR-OH)")
"3.41 (0.8-14.6) nmol/mouse"
>>> reported("C[C@H](NC(=O)[C@H](CCC(N)=O)NC(=O)[C@@H](N)CCCNC(=N)N)C(=O)N[C@@H](CCCNC(=N)N)C(=O)O [Peptide 4, H-Arg-Gln-Ala-Arg-OH]")
"12.7 (3.5-46.1) nmol/mouse"

Lookup: Return reported AD50 (nmol/mouse) (95% CL) for target or system Male Swiss Webster mice, item N=C(N)NCCC[C@@H]1NC(=O)[C@H](Cc2ccc(O)cc2)NC(=O)[C@H](CCC(N)=O)NC(=O)CNC1=O [Peptide 7, cyclic(-Gly-Gln-Tyr-Arg-)] (cyclo(GQYR)) .
Found: 4.21 (1.80-9.87) nmol/mouse

Lookup: Report AD50 (nmol/mouse) (95% CL) under test system Male Swiss Webster mice for N=C(N)NCCC[C@H](NC(=O)CNC(=O)[C@H](CCC(N)=O)NC(=O)[C@@H](N)CCCNC(=N)N)C(=O)O [Peptide 1, H-Arg-Gln-Gly-Arg-OH] (H-RQGR-OH) .
Found: 12.8 (3.6-46.1) nmol/mouse

* * *

test system: Male Swiss Webster mice; assay: Mouse acetic acid-induced writhing test (i.c.v. peptides); type: in vivo; conditions: as compared with HN, method #2 (AD50)
Marks after values point to notes of the source that are not given here. Square brackets hold non-standard residues; d marks the D form. Peptide text beside a SMILES is read from it.
Overview of recorded Potency ratio (95% CL) for various molecules

>>> reported("N=C(N)NCCC[C@H]1NC(=O)[C@H](Cc2ccc(O)cc2)NC(=O)[C@H](CCC(N)=O)NC(=O)CNC1=O [Peptide 8, cyclic(-Gly-Gln-Tyr-D-Arg-)] (cyclo(GQY[dR]))")
"5.35 (1.04-26.4)*"
>>> reported("N=C(N)NCCC[C@@H]1NC(=O)[C@H](Cc2ccc(O)cc2)NC(=O)[C@H](CCC(N)=O)NC(=O)CNC1=O [Peptide 7, cyclic(-Gly-Gln-Tyr-Arg-)] (cyclo(GQYR))")
"5.6 (1.25-25)*"
>>> reported("C[C@@H]1NC(=O)[C@H](CCC(N)=O)NC(=O)[C@H](CCCNC(=N)N)NC(=O)[C@H](CCCNC(=N)N)NC1=O [Peptide 6, cyclic(-Arg-Gln-Ala-Arg-)]")
"0.94 (0.22-3.98)"

Lookup: Specify reported Potency ratio (95% CL) for the molecule shown: N=C(N)NCCC[C@H]1NC(=O)[C@H](Cc2ccc(O)cc2)NC(=O)[C@@H](CCC(N)=O)NC(=O)CNC1=O [Peptide 9, cyclic(-Gly-D-Gln-Tyr-D-Arg-)] (cyclo(G[dQ]Y[dR]))
Found: 10.6 (3.6-31.0)*

Lookup: Return Potency ratio (95% CL) for the following molecule: C[C@@H]1NC(=O)[C@H](CCC(N)=O)NC(=O)CNC(=O)[C@H](CCCNC(=N)N)NC1=O [Peptide 5, cyclic(-Gly-Gln-Ala-Arg-)] (cyclo(ARGQ))
Found: 1.77 (0.11-28.1)

Lookup: # return recorded Potency ratio (95% CL) for entry C[C@H](NC(=O)[C@H](CCC(N)=O)NC(=O)[C@@H](N)CCCNC(=N)N)C(=O)N[C@@H](CCCNC(=N)N)C(=O)O [Peptide 4, H-Arg-Gln-Ala-Arg-OH]
Found: 1.86 (0.27-12.8)

Lookup: Using known records, supply Potency ratio (95% CL) for C[C@@H]1NC(=O)[C@H](CCC(N)=O)NC(=O)CNC(=O)[C@H](CCCNC(=N)N)NC(=O)[C@H](C)NC(=O)[C@H](CCC(N)=O)NC(=O)CNC(=O)[C@H](CCCNC(=N)N)NC1=O [Peptide 5B] (cyclo(ARGQARGQ))
Found: 0.93 (0.22-3.9)

Lookup: Tell me Potency ratio (95% CL) reported for N=C(N)NCCC[C@H](NC(=O)CNC(=O)[C@H](CCC(N)=O)NC(=O)[C@@H](N)CCCNC(=N)N)C(=O)O [Peptide 1, H-Arg-Gln-Gly-Arg-OH] (H-RQGR-OH)
Found: 1.84 (0.3-12.5)

Lookup: Identify measured Potency ratio (95% CL) associated with C[C@H](NC(=O)[C@H](CCC(N)=O)NC(=O)CN)C(=O)N[C@@H](CCCNC(=N)N)C(=O)O [Peptide 3, H-Gly-Gln-Ala-Arg-OH] (H-GQAR-OH)
Found: 6.92 (0.84-56.2)*

Lookup: Item N=C(N)NCCC[C@H](NC(=O)CNC(=O)[C@H](CCC(N)=O)NC(=O)CN)C(=O)O [Peptide 2, H-Gly-Gln-Gly-Arg-OH] (H-GQGR-OH) : provide Potency ratio (95% CL)
Found: 0.91 (0.11-7.63)
